Tested on: MS2 coat protein
method notes: apparent KD of MS2 coat protein, switch ON state; designed switch direction (-1 OFF switch, 1 ON switch): -1; higher = weaker reporter binding
measurement context: FMN input: 0 or 200 uM; Eterna round: R93 (includes R88 designs)
Returns MET if the recorded apparent KD of MS2 coat protein is greater than or equal to 50 nM, and NOT MET otherwise.

Some solved cases for reference:
- polymer sequence: "AGUUGGCGAGGAUAUACAUGAGGAUCACCCAUGUGAGAGUAAGAAGUGAGAAAGAGAAGUAGAAGGCGCUGACA [Ruby 55]"
  target under test: "MS2 coat protein"
  label: "NOT MET"
- polymer sequence: "AAGAAGUGAGGAUAUACAUGAGGAUCACCCAUGUUAAGAAGAAUUUUAGAGAAAGAAGGUAGAAGGCACAAGAA [JR_Exclusion3_Sub5]"
  target under test: "MS2 coat protein"
  label: "NOT MET"
- polymer sequence: "CGGAGGAAAGGAUAUACACAAUAAAAGAAGUGAUCCUUGAGACAUGAGGAUCACCCAUGUAGAAGGUUCACUGA [Zaza]"
  target under test: "MS2 coat protein"
  label: "NOT MET"
- polymer sequence: "GUGUACAGAGGAUAUAUAUGAGCUAGGAAACUAGCAAGAUCACAUGAGGAUCACCCAUGUAGAAGGCUGUACAC [Ex2: 735]"
  target under test: "MS2 coat protein"
  label: "MET"
- polymer sequence: "GAAAAACAUGAGGAUCACCCAUGUAAGGAUAUGCUAAAAAACGCAAAAAAAGCGAAUAGCAGAAGGUACAAAAG [Mat - Exclusion 1 - Eli mod - D82]"
  target under test: "MS2 coat protein"
  label: "NOT MET"

We next turn to a different sequence, shown below.
Could you tell me if the measured apparent KD of MS2 coat protein of AAAAAGUCAGGAUAUAGAAAAGGUCACGAAAGUGACAAAGGCUAGAAGGGACAUGAGGAUCACCCAUGUAAAAA [Mat - Mod of Eli] reaches 50 nM or more?
MET
